# pIC50 annotations
target: Phosphatidylinositol 4,5-bisphosphate 3-kinase catalytic subunit delta isoform (Homo sapiens, UniProt O00329)
Sequence (O00329 whole entry, canonical isoform): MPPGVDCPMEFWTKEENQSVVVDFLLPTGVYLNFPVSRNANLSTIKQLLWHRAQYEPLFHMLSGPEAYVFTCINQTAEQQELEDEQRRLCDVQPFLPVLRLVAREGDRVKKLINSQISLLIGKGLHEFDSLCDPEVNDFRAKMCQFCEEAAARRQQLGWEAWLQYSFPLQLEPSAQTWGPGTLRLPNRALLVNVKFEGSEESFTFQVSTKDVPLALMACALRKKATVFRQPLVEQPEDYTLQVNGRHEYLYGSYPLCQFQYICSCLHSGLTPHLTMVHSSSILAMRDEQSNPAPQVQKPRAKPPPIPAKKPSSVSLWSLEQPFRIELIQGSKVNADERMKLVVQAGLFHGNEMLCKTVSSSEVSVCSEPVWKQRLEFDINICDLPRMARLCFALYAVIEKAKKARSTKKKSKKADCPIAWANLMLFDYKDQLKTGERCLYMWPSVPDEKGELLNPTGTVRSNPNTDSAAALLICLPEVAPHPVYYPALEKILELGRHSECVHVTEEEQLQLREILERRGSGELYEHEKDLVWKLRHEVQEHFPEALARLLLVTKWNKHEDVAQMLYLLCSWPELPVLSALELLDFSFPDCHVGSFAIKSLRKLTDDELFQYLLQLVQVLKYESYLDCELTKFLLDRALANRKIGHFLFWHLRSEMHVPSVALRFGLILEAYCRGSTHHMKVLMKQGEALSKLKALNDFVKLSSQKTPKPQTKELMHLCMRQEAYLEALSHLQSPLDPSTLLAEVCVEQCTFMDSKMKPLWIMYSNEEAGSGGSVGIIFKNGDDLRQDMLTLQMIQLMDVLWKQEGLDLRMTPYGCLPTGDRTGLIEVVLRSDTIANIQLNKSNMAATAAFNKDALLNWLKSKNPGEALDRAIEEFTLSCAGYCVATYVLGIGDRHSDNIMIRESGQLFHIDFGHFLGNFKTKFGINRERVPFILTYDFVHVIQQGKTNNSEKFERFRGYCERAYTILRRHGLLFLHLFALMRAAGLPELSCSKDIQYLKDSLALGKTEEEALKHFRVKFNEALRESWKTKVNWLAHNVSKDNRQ
pIC50: −log10 of the molar value.

{"columns": ["molecule", "pIC50"],
 "data": [
  ["CNC(=O)N(C)C1CCCN(Cc2cc3nc(-c4cccc5[nH]ccc45)nc(N4CCOCC4)c3s2)C1 (racemic)", 6.90],
  ["CC(=O)NC1CCN(Cc2cc3nc(-c4cnc(N)nc4)nc(N4CCOCC4)c3s2)C1 (racemic)", 7.10],
  ["COCC(=O)NC1CCN(Cc2cc3nc(-c4cccc5[nH]ccc45)nc(N4CCOCC4)c3s2)CC1", 7.10],
  ["CC(=O)N[C@@H]1CCN(Cc2cc3nc(-c4cnc(N)nc4)nc(N4CCOCC4)c3s2)C1", 6.80],
  ["CS(=O)(=O)NC1CCN(Cc2cc3nc(-c4cccc5[nH]ccc45)nc(N4CCOCC4)c3s2)CC1", 7.70],
  ["COCC(=O)NC1CCN(Cc2cc3nc(-c4cccc5[nH]ncc45)nc(N4CCOCC4)c3s2)CC1", 6.90],
  ["CS(=O)(=O)NC1CCN(Cc2cc3nc(-c4cnc(N)nc4)nc(N4CCOCC4)c3s2)C1 (racemic)", 7.90],
  ["CC(=O)N(C)C1CCN(Cc2cc3nc(-c4cccc5[nH]ncc45)nc(N4CCOCC4)c3s2)CC1", 7.50]
]}

* * *

target: Albumin (Homo sapiens, UniProt P02768); experiment: Binding affinity to human serum albumin by HPLC analysis; type: ADME; settings: isolated protein
Sequence (P02768 whole entry): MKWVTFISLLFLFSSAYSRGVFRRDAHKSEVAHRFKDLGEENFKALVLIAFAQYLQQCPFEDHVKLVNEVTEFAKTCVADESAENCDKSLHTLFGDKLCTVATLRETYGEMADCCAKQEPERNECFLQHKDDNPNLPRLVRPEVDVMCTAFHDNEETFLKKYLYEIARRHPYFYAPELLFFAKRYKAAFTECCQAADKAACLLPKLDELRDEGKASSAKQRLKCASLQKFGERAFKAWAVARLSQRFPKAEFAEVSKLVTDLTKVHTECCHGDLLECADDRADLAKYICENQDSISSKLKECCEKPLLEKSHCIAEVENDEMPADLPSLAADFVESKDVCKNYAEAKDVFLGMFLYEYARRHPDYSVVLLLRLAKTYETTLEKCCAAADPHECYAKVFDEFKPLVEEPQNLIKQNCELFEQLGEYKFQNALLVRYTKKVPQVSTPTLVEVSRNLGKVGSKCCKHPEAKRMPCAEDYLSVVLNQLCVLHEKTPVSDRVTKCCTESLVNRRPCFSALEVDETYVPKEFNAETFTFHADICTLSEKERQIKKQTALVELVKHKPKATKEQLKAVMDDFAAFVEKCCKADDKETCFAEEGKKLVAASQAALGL
readout label: Activity (%)

{"columns": ["compound", "recorded value"],
 "data": [
  ["CS(=O)(=O)NC1CCN(Cc2cc3nc(-c4cnc(N)nc4)nc(N4CCOCC4)c3s2)C1 (racemic)", 80.9],
  ["COCC(=O)N(C)C1CCCN(Cc2cc3nc(-c4cccc5[nH]ccc45)nc(N4CCOCC4)c3s2)C1 (racemic)", 95.2],
  ["COCC(=O)N(C)C1CCN(Cc2cc3nc(-c4cccc5[nH]ccc45)nc(N4CCOCC4)c3s2)C1 (racemic)", 94.1],
  ["COCC(=O)N(C)C1CCN(Cc2cc3nc(-c4cccc5[nH]ccc45)nc(N4CCOCC4)c3s2)CC1", 94.3],
  ["CC(=O)N(C)C1CCN(Cc2cc3nc(-c4cccc5[nH]ccc45)nc(N4CCOCC4)c3s2)C1 (racemic)", 94.4]
]}

* * *

test: Lipophilicity, logD of compound at pH 7.4 by HPLC-MS analysis; conditions: buffer
Each item that follows carries a reported logD.
readout label: logD

{"columns": ["compound", "recorded value"],
 "data": [
  ["CC(=O)NC1CCCN(Cc2cc3nc(-c4cnc(N)nc4)nc(N4CCOCC4)c3s2)C1 (racemic)", 2.5],
  ["CS(=O)(=O)NC1CCN(Cc2cc3nc(-c4cnc(N)nc4)nc(N4CCOCC4)c3s2)CC1", 2.4],
  ["COCC(=O)N(C)C1CCCN(Cc2cc3nc(-c4cccc5[nH]ncc45)nc(N4CCOCC4)c3s2)C1 (racemic)", 4.3],
  ["CNC(=O)NC1CCCN(Cc2cc3nc(-c4cnc(N)nc4)nc(N4CCOCC4)c3s2)C1 (racemic)", 2.6],
  ["CS(=O)(=O)NC1CCCN(Cc2cc3nc(-c4cnc(N)nc4)nc(N4CCOCC4)c3s2)C1 (racemic)", 3.1],
  ["CC(=O)N(C)C1CCCN(Cc2cc3nc(-c4cnc(N)nc4)nc(N4CCOCC4)c3s2)C1 (racemic)", 3.1],
  ["CN(C1CCN(Cc2cc3nc(-c4cccc5[nH]ncc45)nc(N4CCOCC4)c3s2)CC1)S(C)(=O)=O", 4.5],
  ["CC(=O)NC1CCN(Cc2cc3nc(-c4cccc5[nH]ccc45)nc(N4CCOCC4)c3s2)C1 (racemic)", 3.7],
  ["CN(C1CCN(Cc2cc3nc(-c4cccc5[nH]ccc45)nc(N4CCOCC4)c3s2)CC1)S(C)(=O)=O", 5.2],
  ["COCC(=O)N(C)C1CCN(Cc2cc3nc(-c4cccc5[nH]ncc45)nc(N4CCOCC4)c3s2)C1 (racemic)", 3.8],
  ["CC(=O)N[C@H]1CCN(Cc2cc3nc(-c4cnc(N)nc4)nc(N4CCOCC4)c3s2)C1", 1.8],
  ["CC(=O)NC1CCN(Cc2cc3nc(-c4cccc5[nH]ccc45)nc(N4CCOCC4)c3s2)CC1", 4],
  ["COCC(=O)N(C)C1CCCN(Cc2cc3nc(-c4cccc5[nH]ccc45)nc(N4CCOCC4)c3s2)C1 (racemic)", 4.8],
  ["CC(=O)N(C)C1CCN(Cc2cc3nc(-c4cccc5[nH]ncc45)nc(N4CCOCC4)c3s2)C1 (racemic)", 3.6],
  ["COCC(=O)NC1CCCN(Cc2cc3nc(-c4cnc(N)nc4)nc(N4CCOCC4)c3s2)C1 (racemic)", 3],
  ["CS(=O)(=O)NC1CCN(Cc2cc3nc(-c4cccc5[nH]ncc45)nc(N4CCOCC4)c3s2)C1 (racemic)", 3.5],
  ["CC(=O)NC1CCN(Cc2cc3nc(-c4cnc(N)nc4)nc(N4CCOCC4)c3s2)CC1", 2.2]
]}

* * *

# IC50 values compiled below
target: Phosphatidylinositol 4,5-bisphosphate 3-kinase catalytic subunit beta isoform (Homo sapiens, UniProt P42338); assay: Inhibition of PI3Kbeta (unknown origin) using biotin-PIP3 as substrate preincubated for 15 mins followed by substrate addition and measured after 60 mins by fluorescence polarization assay
Sequence (P42338 whole entry, canonical isoform): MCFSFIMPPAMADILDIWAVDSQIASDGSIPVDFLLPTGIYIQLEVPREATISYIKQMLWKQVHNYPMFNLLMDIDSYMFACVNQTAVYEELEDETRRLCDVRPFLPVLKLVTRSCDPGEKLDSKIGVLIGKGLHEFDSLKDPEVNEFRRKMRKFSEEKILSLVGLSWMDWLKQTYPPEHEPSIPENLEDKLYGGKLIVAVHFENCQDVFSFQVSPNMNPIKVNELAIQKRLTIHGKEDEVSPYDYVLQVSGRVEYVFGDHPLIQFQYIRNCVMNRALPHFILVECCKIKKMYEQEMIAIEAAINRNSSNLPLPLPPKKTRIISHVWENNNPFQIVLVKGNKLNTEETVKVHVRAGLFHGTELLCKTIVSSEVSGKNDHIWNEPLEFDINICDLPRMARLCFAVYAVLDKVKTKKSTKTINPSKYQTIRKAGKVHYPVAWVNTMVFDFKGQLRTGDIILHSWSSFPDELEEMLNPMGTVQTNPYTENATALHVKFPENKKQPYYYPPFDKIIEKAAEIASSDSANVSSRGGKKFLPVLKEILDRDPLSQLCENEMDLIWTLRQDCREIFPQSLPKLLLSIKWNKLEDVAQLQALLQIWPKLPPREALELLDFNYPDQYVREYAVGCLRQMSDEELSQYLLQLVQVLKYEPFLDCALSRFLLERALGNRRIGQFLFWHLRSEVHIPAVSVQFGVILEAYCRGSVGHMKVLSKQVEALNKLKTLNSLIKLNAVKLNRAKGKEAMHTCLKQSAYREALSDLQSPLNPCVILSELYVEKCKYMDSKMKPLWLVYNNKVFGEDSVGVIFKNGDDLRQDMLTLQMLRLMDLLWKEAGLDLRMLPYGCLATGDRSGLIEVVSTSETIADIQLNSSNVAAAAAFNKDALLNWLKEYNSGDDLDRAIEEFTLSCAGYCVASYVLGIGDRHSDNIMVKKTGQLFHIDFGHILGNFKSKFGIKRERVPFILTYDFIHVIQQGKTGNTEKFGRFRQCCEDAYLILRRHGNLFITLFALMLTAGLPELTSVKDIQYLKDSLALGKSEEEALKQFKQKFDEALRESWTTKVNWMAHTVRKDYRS
readout label: IC50

{"columns": ["compound", "readout label", "recorded value"],
 "data": [
  ["CN(C1CCCN(Cc2cc3nc(-c4cnc(N)nc4)nc(N4CCOCC4)c3s2)C1)S(C)(=O)=O (racemic)", "IC50", "1000 nM"],
  ["COCC(=O)NC1CCN(Cc2cc3nc(-c4cccc5[nH]ncc45)nc(N4CCOCC4)c3s2)CC1", "IC50", "3980 nM"],
  ["CS(=O)(=O)NC1CCN(Cc2cc3nc(-c4cccc5[nH]ccc45)nc(N4CCOCC4)c3s2)CC1", "IC50", "631 nM"],
  ["CNC(=O)NC1CCN(Cc2cc3nc(-c4cccc5[nH]ncc45)nc(N4CCOCC4)c3s2)CC1", "IC50", "3160 nM"]
]}

* * *

molecular target: Phosphatidylinositol 4,5-bisphosphate 3-kinase catalytic subunit beta isoform (Homo sapiens); assay: Inhibition of PI3Kbeta (unknown origin) using biotin-PIP3 as substrate preincubated for 15 mins followed by substrate addition and measured after 60 mins by fluorescence polarization assay
The following compounds are shown together with reported log10(IC50) values.
readout label: log10(IC50) (log10 of the value in nM)

{"columns": ["compound", "log10(IC50)"],
 "data": [
  ["CC(=O)NC1CCN(Cc2cc3nc(-c4cnc(N)nc4)nc(N4CCOCC4)c3s2)C1 (racemic)", 2.70],
  ["CNC(=O)NC1CCN(Cc2cc3nc(-c4cccc5[nH]ncc45)nc(N4CCOCC4)c3s2)C1 (racemic)", 3.40],
  ["CS(=O)(=O)NC1CCCN(Cc2cc3nc(-c4cnc(N)nc4)nc(N4CCOCC4)c3s2)C1 (racemic)", 2.50],
  ["CS(=O)(=O)NC1CCN(Cc2cc3nc(-c4cccc5[nH]ncc45)nc(N4CCOCC4)c3s2)C1 (racemic)", 3.50],
  ["CC(=O)N(C)C1CCN(Cc2cc3nc(-c4cccc5[nH]ncc45)nc(N4CCOCC4)c3s2)CC1", 3.30],
  ["CNC(=O)N(C)C1CCCN(Cc2cc3nc(-c4cccc5[nH]ccc45)nc(N4CCOCC4)c3s2)C1 (racemic)", 4.00],
  ["CN(C1CCN(Cc2cc3nc(-c4cccc5[nH]ccc45)nc(N4CCOCC4)c3s2)C1)S(C)(=O)=O (racemic)", 2.70],
  ["COCC(=O)N(C)C1CCN(Cc2cc3nc(-c4cccc5[nH]ccc45)nc(N4CCOCC4)c3s2)CC1", 3.00],
  ["CC(=O)N[C@H]1CCN(Cc2cc3nc(-c4cnc(N)nc4)nc(N4CCOCC4)c3s2)C1", 3.60],
  ["CC(=O)N(C)C1CCN(Cc2cc3nc(-c4cnc(N)nc4)nc(N4CCOCC4)c3s2)CC1", 2.60],
  ["COCC(=O)N(C)C1CCN(Cc2cc3nc(-c4cnc(N)nc4)nc(N4CCOCC4)c3s2)CC1", 2.80],
  ["CC(=O)N(C)[C@H]1CCN(Cc2cc3nc(-c4cnc(N)nc4)nc(N4CCOCC4)c3s2)C1", 2.80],
  ["CNC(=O)NC1CCN(Cc2cc3nc(-c4cnc(N)nc4)nc(N4CCOCC4)c3s2)CC1", 2.80],
  ["CC(=O)N(C)C1CCCN(Cc2cc3nc(-c4cccc5[nH]ncc45)nc(N4CCOCC4)c3s2)C1 (racemic)", 3.30],
  ["CC(=O)N(C)C1CCN(Cc2cc3nc(-c4cccc5[nH]ccc45)nc(N4CCOCC4)c3s2)CC1", 3.30],
  ["CS(=O)(=O)NC1CCN(Cc2cc3nc(-c4cccc5[nH]ccc45)nc(N4CCOCC4)c3s2)C1 (racemic)", 2.80],
  ["CNC(=O)NC1CCCN(Cc2cc3nc(-c4cnc(N)nc4)nc(N4CCOCC4)c3s2)C1 (racemic)", 3.30],
  ["CC(=O)NC1CCN(Cc2cc3nc(-c4cccc5[nH]ccc45)nc(N4CCOCC4)c3s2)C1 (racemic)", 3.10],
  ["COCC(=O)N(C)C1CCN(Cc2cc3nc(-c4cccc5[nH]ncc45)nc(N4CCOCC4)c3s2)CC1", 3.20],
  ["CNC(=O)N(C)C1CCCN(Cc2cc3nc(-c4cnc(N)nc4)nc(N4CCOCC4)c3s2)C1 (racemic)", 3.30],
  ["CC(=O)N[C@@H]1CCN(Cc2cc3nc(-c4cnc(N)nc4)nc(N4CCOCC4)c3s2)C1", 3.30],
  ["CC(=O)NC1CCCN(Cc2cc3nc(-c4cccc5[nH]ncc45)nc(N4CCOCC4)c3s2)C1 (racemic)", 3.80]
]}

Reference source for all entries: ChEMBL document CHEMBL4414631
